biological target: HLA-A*01:01; experiment: IEDB peptide-MHC binding, purified MHC/competitive/radioactivity; filed as Kd, often an IC50 or EC50 that approximates it; bounds were set here for any values at or beyond the usual limits of such assays; settings: source organism: Lassa virus GA391
pKd: −log10 of the molar value.
outcome measure: pKd

Look up and report measured pKd for this entry: YCNYSRYWY
≤ 4.46

====

biological target: HLA-B*15:17; test: IEDB peptide-MHC binding, purified MHC/direct/fluorescence; filed as Kd, often an IC50 or EC50 that approximates it; bounds were set here for any values at or beyond the usual limits of such assays; conditions: source organism: Salmonella enterica subsp. enterica serovar Berta
outcome measure: Kd

Look up and report measured Kd for this entry: HQDDGQPRL
≥ 20 µM

====

molecular target: HLA-B*44:02; assay: IEDB peptide-MHC binding, purified MHC/direct/fluorescence; filed as Kd, often an IC50 or EC50 that approximates it; bounds were set here for any values at or beyond the usual limits of such assays; settings: source organism: Yersinia pestis
outcome measure: Kd

Look up and report measured Kd for this entry: RVFNGDDVK
≥ 20 µM

====

target: HLA-A*23:01; experiment: IEDB peptide-MHC binding, purified MHC/competitive/radioactivity; filed as Kd, often an IC50 or EC50 that approximates it; bounds were set here for any values at or beyond the usual limits of such assays; conditions: source organism: Dengue virus 4 Philippines/H241/1956
outcome measure: Kd (nM)
Response body: numeric value in nM, unit text excluded.

Look up and report measured Kd for this entry: HWVEITALI
100

====

target: HLA-A*26:01; assay: IEDB peptide-MHC binding, purified MHC/competitive/fluorescence; filed as Kd, often an IC50 or EC50 that approximates it; bounds were set here for any values at or beyond the usual limits of such assays; conditions: source organism: Brucella suis ATCC 23445
pKd: −log10 of the molar value.
outcome measure: pKd

Look up and report measured pKd for this entry: ITAVNRYFK
≤ 4.70

====

target: HLA-A*02:03; test: IEDB peptide-MHC binding, purified MHC/competitive/radioactivity; filed as Kd, often an IC50 or EC50 that approximates it; bounds were set here for any values at or beyond the usual limits of such assays; settings: source organism: Vaccinia virus Copenhagen
outcome measure: pKd
For clarity, pKd is expressed as the negative log10 of concentration in mol/L.

Look up and report measured pKd for this entry: NLFDIPLLTV
9.60

====

target: HLA-A*11:01; assay: IEDB peptide-MHC binding, purified MHC/direct/fluorescence; filed as Kd, often an IC50 or EC50 that approximates it; bounds were set here for any values at or beyond the usual limits of such assays; settings: source organism: Salmonella enterica subsp. enterica serovar Typhimurium
outcome measure: pKd
For clarity, pKd is expressed as the negative log10 of concentration in mol/L.

Answer with pKd of ATISYRIKL measured for HLA-A*11:01.
7.26

====

molecular target: HLA-A*31:01; experiment: IEDB peptide-MHC binding, purified MHC/direct/fluorescence; filed as Kd, often an IC50 or EC50 that approximates it; bounds were set here for any values at or beyond the usual limits of such assays; conditions: source organism: Mycobacterium tuberculosis
pKd: −log10 of the molar value.
outcome measure: pKd

Here are 2 sequences together with their reported answers.
1. RPRVAQLTF
≤ 4.70
2. KPKLARGEL
≤ 4.70

Look up and report measured pKd for this entry: RPKPDYSAM
≤ 4.70
